Target: T1, human CD80-murine Ig fusion protein (human)
T1 construct: Bought (Ancell #510-820); also called hCD80-mIg; human CD80-murine IgG
T1 chain: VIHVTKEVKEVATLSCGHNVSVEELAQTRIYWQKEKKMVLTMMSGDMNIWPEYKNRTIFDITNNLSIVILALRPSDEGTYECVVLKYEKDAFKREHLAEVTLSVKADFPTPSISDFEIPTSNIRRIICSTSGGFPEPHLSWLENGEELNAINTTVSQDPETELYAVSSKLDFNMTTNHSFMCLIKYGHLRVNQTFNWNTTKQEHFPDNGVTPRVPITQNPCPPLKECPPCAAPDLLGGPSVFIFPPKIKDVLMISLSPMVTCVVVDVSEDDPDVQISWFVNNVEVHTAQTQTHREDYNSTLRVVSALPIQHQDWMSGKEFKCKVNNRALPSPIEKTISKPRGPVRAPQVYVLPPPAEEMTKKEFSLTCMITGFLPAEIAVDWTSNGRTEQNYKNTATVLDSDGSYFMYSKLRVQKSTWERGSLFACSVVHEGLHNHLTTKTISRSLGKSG
Test: SPR Biacore, hCD80-mIg captured
measured_metric: Kd

QUERY: Which Kd value belongs to D3-29-IgG2 (Fc fusion) MHVAQPAVVLASSRGIASFVCEYASPGKANEIRVTVLRQADSQVTEVCAMTYMKGDELTFLDDPSCTGTFSGNQVNLTIQGLRAMDTGLYICKVELMYPPPYYLGIGNGTQIYVIDPEPCPDSDERKCCVECPPCPAPPVAGPSVFLFPPKPKDTLMISRTPEVTCVVVDVSHEDPEVQFNWYVDGVEVHNAKTKPREEQFNSTFRVVSVLTVVHQDWLNGKEYKCKVSNKGLPAPIEKTISKTKGQPREPQVYTLPPSREEMTKNQVSLTCLVKGFYPSDIAVEWESNGQPENNYKTTPPMLDSDGSFFLYSKLTVDKSRWQQGNVFSCSVMHEALHNHYTQKSLSLSPG ?
RESULT: 0.439 to 1.75 nM
